The reported measurements were obtained from patent US8309734B2.

Target: human GPBAR1 receptor (Homo sapiens)
Sequence (Q8TDU6 1-330): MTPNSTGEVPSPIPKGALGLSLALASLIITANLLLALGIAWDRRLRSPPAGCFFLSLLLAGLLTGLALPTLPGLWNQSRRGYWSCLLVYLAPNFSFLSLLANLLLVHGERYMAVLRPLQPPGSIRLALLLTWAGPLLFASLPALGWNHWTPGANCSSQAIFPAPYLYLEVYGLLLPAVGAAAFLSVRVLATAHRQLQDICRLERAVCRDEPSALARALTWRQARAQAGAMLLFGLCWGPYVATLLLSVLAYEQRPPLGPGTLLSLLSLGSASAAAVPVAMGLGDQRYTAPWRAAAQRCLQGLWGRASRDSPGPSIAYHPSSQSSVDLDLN
Assay: functional cAMP assay in CHO-dhfr(minus) cells expressing human GPBAR1 receptors
Conditions: cAMP increase (TR-FRET) in CHO-dhfr(minus) cells expressing human GPBAR1; compounds incubated 30 min at 30° C.
READOUT LABEL: EC50 (µM)

// solved cases for EC50 follow
Given the compound Cc1cc(Cl)ccc1N(C)C(=O)c1cccnc1Oc1cc(Cl)ccc1Cl [Example 56] , what is its reported EC50? 1.39

Proceed to Cc1ccccc1N(C)C(=O)c1ccncc1Oc1ccc(Cl)cc1Cl [Example 99] 0.388

Proceed to O=C(c1ccccc1Oc1cc(Cl)ccc1Cl)N1CCCc2cc(F)cc(F)c21 [Example 121] 0.231

[P] CN(C(=O)c1cccnc1Oc1cc(Cl)ccc1Cl)c1ccccc1 [Example 35]
[Q] COc1ccc(C)cc1N(C)C(=O)c1cccnc1Oc1cc(Cl)ccc1Cl [Example 59]
Between P and Q , which one has the lower reported EC50 value? Bench note: the answer is the label of the chosen record. P
